# study.target: human dopamine D2Long (D2L) receptors (Homo sapiens, UniProt P14416)
# Sequence (P14416 whole entry): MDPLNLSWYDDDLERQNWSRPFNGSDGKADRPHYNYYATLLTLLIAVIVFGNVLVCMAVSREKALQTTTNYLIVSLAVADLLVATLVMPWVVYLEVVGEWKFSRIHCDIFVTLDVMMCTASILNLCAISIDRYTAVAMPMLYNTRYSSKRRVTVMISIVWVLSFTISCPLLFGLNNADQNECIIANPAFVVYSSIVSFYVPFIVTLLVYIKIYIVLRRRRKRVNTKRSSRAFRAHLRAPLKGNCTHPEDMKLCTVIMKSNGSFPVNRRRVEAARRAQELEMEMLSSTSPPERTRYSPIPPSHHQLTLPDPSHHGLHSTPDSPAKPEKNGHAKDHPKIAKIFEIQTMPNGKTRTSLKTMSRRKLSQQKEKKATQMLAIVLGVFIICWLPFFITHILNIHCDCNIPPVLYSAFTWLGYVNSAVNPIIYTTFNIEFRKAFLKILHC
Structures can show the parent of a compound that is named as a salt.
parameter: pKi
Field pKi (float): negative decimal logarithm of the concentration in molar.

Supply reported pKi belonging to this molecule: Cc1ccc2c(c1O)C[C@@H](C1CCN(CCC(C)NC(=O)c3cc4ccccc4s3)CC1)O[C@H]2CN (stereo partly shown) [Example 20, dihydrochloride] 6.58

Please report pKi for the following molecule: Cc1ccc2c(c1O)C[C@@H](C1CCN(Cc3ccccc3)CC1)O[C@H]2CNC1CCC1 6.52

Given the molecule Cc1ccc2c(c1O)C[C@@H](C1CCN(CCC(C)NC(=O)c3ccc4ccccc4c3)CC1)O[C@H]2CN (stereo partly shown) [Example 19, dihydrochloride] , write its reported pKi. 6.51

Retrieve pKi measured for Cc1ccc2c(c1O)C[C@@H](C1CCN(S(=O)(=O)c3ccc(C(C)C)cc3)CC1)O[C@H]2CN [Example 145, hydrochloride] and print it. 6.54

Supply reported pKi belonging to this molecule: COc1cccc(CN2CCC([C@@H]3Cc4c(ccc(C)c4O)[C@H](CN)O3)CC2)c1 [Example 31, dihydrochloride] 6.24

Tell us which pKi value is on record for Cc1ccc2c(c1O)C[C@@H](C1CCN(Cc3cccc(C(F)(F)F)c3F)CC1)O[C@H]2CN [Example 80, dihydrochloride] 6.25

State its pKi for this molecule: Cc1ccc2c(c1O)C[C@@H](C1CCN(Cc3ccccc3C(F)(F)F)CC1)O[C@H]2CN [Example 72, dihydrochloride] 6.58

====

# study.target: human dopamine D1 receptor (Homo sapiens)
# Construct: A 1.4 Kb Hind III to Xho I fragment was subcloned into the vector pMMLV; expressed in transfected cells; host or cells: CHO cells, clone CHO-D1M#9 (plasmid pHD1MMLV), membranes
# Sequence (P21728 whole entry, the tested form may be a part): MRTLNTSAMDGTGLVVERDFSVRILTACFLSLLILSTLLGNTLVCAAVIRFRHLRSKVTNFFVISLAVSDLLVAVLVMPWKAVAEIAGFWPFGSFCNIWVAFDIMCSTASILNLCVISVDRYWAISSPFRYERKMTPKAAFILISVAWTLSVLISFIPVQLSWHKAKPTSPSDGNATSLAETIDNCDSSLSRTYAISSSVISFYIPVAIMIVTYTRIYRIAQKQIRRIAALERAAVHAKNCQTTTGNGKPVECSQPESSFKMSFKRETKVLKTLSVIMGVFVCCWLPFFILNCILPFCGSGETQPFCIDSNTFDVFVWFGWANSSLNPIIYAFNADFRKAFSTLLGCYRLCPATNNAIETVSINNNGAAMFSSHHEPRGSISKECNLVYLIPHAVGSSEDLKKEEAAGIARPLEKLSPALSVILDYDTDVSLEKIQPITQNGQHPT
# procedure.summary: [3H]-SCH-23390 binding to cloned human dopamine D1 receptors (CHO cell membranes)
# assay.context: competitive binding, [3H]-SCH-23390, cloned human D1 in CHO membranes; read-out: D1 affinity Ki
Where a name gives a salt, the structure may show the parent alone.
Exercise: for every item that follows, state its recorded Ki.
Express the result in nM but write the number alone.

Return reported Ki. Input compound: CCNC[C@@H]1O[C@H](C2CCN(Cc3ccccc3)CC2)Cc2c1ccc(C)c2O 522

Write down Ki measured for item Cc1ccc2c(c1O)C[C@@H](C1CCN(CCC(C)NC(=O)c3ccc(Cl)cc3)CC1)O[C@H]2CN (stereo partly shown) [Example 13, dihydrochloride] 128

Complete the entry with Ki for Cc1ccc2c(c1O)C[C@@H](C1CCN(Cc3ccc(O)cc3)CC1)O[C@H]2CN [Example 62, dihydrochloride] 46.1

Report measured Ki; entry is Cc1ccc2c(c1O)C[C@@H](C1CCN(CCC(C)NC(=O)c3ccc(Cl)cc3Cl)CC1)O[C@H]2CN (stereo partly shown) [Example 17, dihydrochloride] 138

Look up and report measured Ki for this entry: CCCCN(CCCC)C(=O)N1CCC([C@@H]2Cc3c(ccc(C)c3O)[C@H](CN)O2)CC1 [Example 139, hydrochloride] 137

Indicate its recorded Ki; the compound in question is CNC[C@@H]1O[C@H](C2CCN(Cc3ccc(C(C)C)cc3)CC2)Cc2c1ccc(C)c2O [Example 97, dihydrochloride] 53.1

Return Ki (reported value) for this compound: Cc1ccc2c(c1O)C[C@@H](C1CCN(CCNC(=O)Nc3ccccc3)CC1)O[C@H]2CN [Example 193, dihydrobromide] 50

====

Answer each item with its documented EC50.
# study.target: D1 receptor (Homo sapiens)
# Construct: expressed in transfected cells; host or cells: D1 transfected CHO cell line
# procedure.summary: D1 Activation Adenylyl Cyclase Assay (cAMP FlashPlate, D1 transfected CHO cell line)
# Assay type: cell-based
# assay.context: agonist activity at the D1 receptor, adenylate cyclase assay, D1 transfected CHO cell line; read-out: D1 EC50
Structures can show the parent of a compound that is named as a salt.
Write it as a number; the unit nM goes unstated.

Please indicate EC50 recorded for Cc1ccc2c(c1O)C[C@@H](C1CCN(CCNC(=O)c3ccc(F)cc3)CC1)O[C@H]2CN [Example 189, dihydrobromide] 270

Retrieve EC50 measured for Cc1ccc2c(c1O)C[C@@H](C1CCN(CCc3ccccc3)CC1)O[C@H]2CN [Example 106, dihydrobromide] and print it. 29

Specify reported EC50 for the molecule shown: Cc1ccc2c(c1O)C[C@@H](C1CCN(Cc3ccc(C(F)(F)F)cc3F)CC1)O[C@H]2CN [Example 70, dihydrochloride] 77

In one line, give reported EC50 of the entry Cc1ccc2c(c1O)C[C@@H](C1CCN(CCc3cccc(Cl)c3)CC1)O[C@H]2CN [Example 107, dihydrobromide] . 140

====

Field: pEC50. Provide a value for each of the molecules that follow.
# study.target: D1 receptor (Homo sapiens, UniProt P21728)
# Construct: expressed in transfected cells; host or cells: D1 transfected CHO cell line
# procedure.summary: D1 Activation Adenylyl Cyclase Assay (cAMP FlashPlate, D1 transfected CHO cell line)
# Format: cell-based
# assay.context: agonist activity at the D1 receptor, adenylate cyclase assay, D1 transfected CHO cell line; read-out: D1 EC50
Where a name gives a salt, the structure may show the parent alone.
Lab note: report pEC50 as minus log10 of the concentration in molar units, number only.

Supply pEC50 value. Item: Cc1ccc2c(c1O)C[C@@H](C1CCN(CCCC(c3ccc(F)cc3)c3ccc(F)cc3)CC1)O[C@H]2CN [Example 108, dihydrobromide] 7.44

Give pEC50 for the following molecule: Cc1ccc2c(c1O)C[C@@H](C1CCN(CC3CC3)CC1)O[C@H]2CN [Example 38, dihydrochloride] 8.00

Please give measured pEC50 of the following entry: Cc1ccc2c(c1O)C[C@@H](C1CCN(CC(C)c3ccccc3)CC1)O[C@H]2CN (stereo partly shown) [Example 29, dihydrobromide] 7.40

Quote pEC50 reported for Cc1ccc2c(c1O)C[C@@H](C1CCN(Cc3ccccc3Cl)CC1)O[C@H]2CN [Example 35, dihydrobromide] please. 7.36

Tell us which pEC50 value is on record for Cc1ccc2c(c1O)C[C@@H](C1CCN(C(=O)Nc3ccccc3F)CC1)O[C@H]2CN [Example 129, hydrochloride] 5.70

Please look at this molecule and report its pEC50: Cc1ccc2c(c1O)C[C@@H](C1CCN(CCC(C)NC(=O)c3ccc4ccccc4c3)CC1)O[C@H]2CN (stereo partly shown) [Example 19, dihydrochloride] 8.21

For Cc1ccc2c(c1O)C[C@@H](C1CCN(Cc3cccnc3)CC1)O[C@H]2CN [Example 53, dihydrochloride] , write its pEC50. 7.82

====

# study.target: human dopamine D1 receptor (Homo sapiens)
# Construct: A 1.4 Kb Hind III to Xho I fragment was subcloned into the vector pMMLV; expressed in transfected cells; host or cells: CHO cells, clone CHO-D1M#9 (plasmid pHD1MMLV), membranes
# procedure.summary: [3H]-SCH-23390 binding to cloned human dopamine D1 receptors (CHO cell membranes)
# assay.context: competitive binding, [3H]-SCH-23390, cloned human D1 in CHO membranes; read-out: D1 affinity Ki
Counter-ions that a name gives are not always drawn.
parameter: Ki (nM)
State just the number; it will be interpreted in nM.

# return recorded Ki for entry Cc1ccc2c(c1O)C[C@@H](C1CCN(S(=O)(=O)Cc3ccc(Cl)c(Cl)c3)CC1)O[C@H]2CN [Example 160, hydrochloride] 264

Complete the entry with Ki for CNC[C@@H]1O[C@H](C2CCN(CC3CCCCC3)CC2)Cc2c1ccc(C)c2O [Example 96, dihydrochloride] 265

Return Ki (reported value) for this molecule: Cc1ccc2c(c1O)C[C@@H](C1CCN(CCNC(=O)c3ccc(F)cc3)CC1)O[C@H]2CN [Example 189, dihydrobromide] 312

Answer with the recorded Ki of COc1ccccc1CN1CCC([C@@H]2Cc3c(ccc(C)c3O)[C@H](CN)O2)CC1 [Example 68, dihydrochloride] only. 96.7

Specify Ki for Cc1ccc2c(c1O)C[C@@H](C1CCN(CCC(C)NC(=O)c3ccc(F)cc3)CC1)O[C@H]2CN (some centres unmarked) [Example 22, dihydrochloride] and stop. 114

Please supply the value of reported Ki for the item CCCCS(=O)(=O)N1CCC([C@@H]2Cc3c(ccc(C)c3O)[C@H](CN)O2)CC1 [Example 154, hydrochloride] 270

Respond only with Ki recorded for Cc1ccc2c(c1O)C[C@@H](C1CCN(Cc3ccccc3)CC1)O[C@H]2CN(C)C [Example 169] 158

Fill in Ki for record Cc1ccc2c(c1O)C[C@@H](C1CCN(Cc3cc4ccccc4o3)CC1)O[C@H]2CN [Example 85, dihydrochloride] 25.6

Return reported Ki. Input molecule: Cc1ccc2c(c1O)C[C@@H](C1CCN(C(C(=O)O)c3ccccc3)CC1)O[C@H]2CN (some centres unmarked) [Example 195, dihydrobromide] 1700

Give Ki for the following molecule: Cc1ccc2c(c1O)C[C@@H](C1CCN(S(=O)(=O)CCc3cccc4ccccc34)CC1)O[C@H]2CN [Example 159, hydrochloride] 64.5

Give Ki for the following molecule: Cc1ccc2c(c1O)C[C@@H](C1CCN(S(=O)(=O)N3CCC(Cc4ccccc4)CC3)CC1)O[C@H]2CN [Example 166, hydrochloride] 207

Quick one: give measured Ki for Cc1ccc2c(c1O)C[C@@H](C1CCN(Cc3ccccc3C(F)(F)F)CC1)O[C@H]2CN [Example 72, dihydrochloride] 159

Identify measured Ki corresponding to CNC[C@@H]1O[C@H](C2CCN(Cc3ccc(C(F)(F)F)cc3)CC2)Cc2c1ccc(C)c2O [Example 181, hydrochloride] 21

Return Ki for the following molecule: CCN(C)C[C@@H]1O[C@H](C2CCN(Cc3ccc(C(F)(F)F)cc3)CC2)Cc2c1ccc(C)c2O [Example 183] 123

Where do these numbers come from? They come from patent US7919508B2.
